- system: human red blood cell AChE (Homo sapiens)
- Construct: human red blood cell AChE; from tissue; host or cells: human red blood cells
- assay-remarks: AChE reactivation assay with echothiophate-inhibited human red blood cell AChE
- Format: biochemical
- experimental-context: single concentration 10^-6 M, added for 1 hour; AChE inhibited by echothiophate 10^-7 M; means ± standard errors of 4 measurements; read-out: Percentages of AChE reactivation
# if value of activation at 1 µM reaches 50%, tag met; if it stays below, tag not met

Worked set:
1) ON=Cc1cccc[n+]1CCCCCCCCC[n+]1ccccc1C=NO    met
2) ON=Cc1cccc[n+]1CCCCCCCC[n+]1ccccc1C=NO    met
3) C[n+]1ccccc1C=NO [Compound 2-PAM, 2-pralidoxime, reference compound]    not met
4) ON=Cc1cc[n+](CCCCCCCC[n+]2ccc(C=NO)cc2)cc1    not met
5) ON=Cc1cc[n+](CCCCCC[n+]2ccc(C=NO)cc2)cc1    not met

Please look at the following compound next.
Ask | Say whether `ON=Cc1cccc[n+]1CCCCCC[n+]1ccccc1C=NO` shows activation at 1 µM of 50% or more.
Reply | met

* * *

- system: human red blood cell AChE (Homo sapiens, UniProt P22303)
- Construct: human red blood cell AChE; from tissue; host or cells: human red blood cells
- Sequence (P22303 other isoform, or with tags, fused parts or gaps): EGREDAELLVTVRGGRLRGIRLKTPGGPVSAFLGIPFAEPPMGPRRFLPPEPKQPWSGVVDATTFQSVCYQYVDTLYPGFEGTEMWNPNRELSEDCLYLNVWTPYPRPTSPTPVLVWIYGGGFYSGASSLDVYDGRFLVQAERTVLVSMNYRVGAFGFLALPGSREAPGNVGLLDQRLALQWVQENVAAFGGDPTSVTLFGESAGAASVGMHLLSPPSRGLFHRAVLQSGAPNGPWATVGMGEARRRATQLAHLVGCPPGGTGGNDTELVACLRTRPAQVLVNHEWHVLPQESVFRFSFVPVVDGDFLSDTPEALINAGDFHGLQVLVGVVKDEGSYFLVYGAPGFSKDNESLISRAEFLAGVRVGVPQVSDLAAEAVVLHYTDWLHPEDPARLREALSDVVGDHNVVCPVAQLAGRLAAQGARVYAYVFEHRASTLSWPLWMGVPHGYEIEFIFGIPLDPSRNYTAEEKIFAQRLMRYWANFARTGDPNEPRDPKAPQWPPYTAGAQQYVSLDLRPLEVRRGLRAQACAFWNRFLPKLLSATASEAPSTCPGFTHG
- assay-remarks: AChE reactivation assay with echothiophate-inhibited human red blood cell AChE
- Format: biochemical
- experimental-context: single concentration 10^-6 M, added for 1 hour; AChE inhibited by echothiophate 10^-7 M; means ± standard errors of 4 measurements; read-out: Percentages of AChE reactivation
Measured activation at 1 µM values are reported for all entries that follow.
Kindly format the answer as number then unit.

1) ON=Cc1cccc[n+]1CCCCCCC[n+]1ccccc1C=NO [Compound 3b]    80%
2) ON=Cc1cc[n+](CCCCCCC[n+]2ccc(C=NO)cc2)cc1 [Compound 1b]    61%

Ask | Please give the measured activation at 1 µM for this compound: ON=Cc1cc[n+](CCCCCCCCC[n+]2ccc(C=NO)cc2)cc1 [Compound 1d]
Reply | 31%
